The reported numbers originate from paper PMC10397247.

Collected interaction score values appear next to each entry.
# studySystem: T1, 4H3590-AA
# T1 chain: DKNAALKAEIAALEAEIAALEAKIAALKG
# measurementProtocol: two-hybrid library CCmax;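 also: natural log of median RNA to DNA barcode read ratio; higher means stronger binding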
# appliedConditions: mean of both orientations
reportedMetric: interaction score

>>> df
                                     binder     reportedmetric  assayresult
0  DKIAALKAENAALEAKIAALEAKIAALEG [4H2725-AA]  interaction score        -0.62
1  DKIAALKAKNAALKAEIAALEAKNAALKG [4H3016-AA]  interaction score        0.669
2  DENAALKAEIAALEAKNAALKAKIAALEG [4H1597-AA]  interaction score        0.533
3  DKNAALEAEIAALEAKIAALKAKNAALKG [4H3120-AA]  interaction score         1.08
4  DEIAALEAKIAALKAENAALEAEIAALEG [4H337-AA]  interaction score        0.707
5  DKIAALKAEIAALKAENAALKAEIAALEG [4H2649-AA]  interaction score       -0.789
6  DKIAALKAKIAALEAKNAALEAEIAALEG [4H2865-AA]  interaction score       -0.177
